Target: SARS-CoV-2 NSP3 macrodomain (Mac1) (Severe acute respiratory syndrome coronavirus 2, UniProt P0DTD1)
Assay: biochemical
Assay type: binding
Conditions: compound at 200 μM; mean of three to four technical replicates; read-out: % competition at 200 μM (preliminary HTRF screen)
Assign 1.0 whenever inhibition at 200 µM does not fall below 50%; assign 0.0 whenever it does.

Look over these answered cases.
query: Does inhibition at 200 µM meet or surpass 50% for OCC(CC1CCCCC1)Nc1ncnc2[nH]ccc12 (stereo not shown) ?
result: 1.0

query: Does inhibition at 200 µM meet or surpass 50% for CC(C)(C)CC(CO)Nc1ncnc2[nH]ccc12 (stereo not shown) ?
result: 0.0

query: Does inhibition at 200 µM meet or surpass 50% for OCC(Nc1ncnc2[nH]ccc12)C1CCc2ccccc21 (stereo not shown) ?
result: 1.0

query: Does inhibition at 200 µM meet or surpass 50% for "CN(C)C[C@@]1(O)CCCN(c2ncnc3[nH]ccc23)C1" ?
result: 0.0

query: Does inhibition at 200 µM meet or surpass 50% for CC1CCN(C(=O)c2ccc3c(c2)nc(CO)n3C)CC1C(=O)O (stereo not shown) ?
result: 0.0

query: Does inhibition at 200 µM meet or surpass 50% for "O=C(O)C(F)(F)F.O[C@H]1CCC[C@@H]1Nc1ncnc2[nH]ccc12" ?
result: 1.0

query: Does inhibition at 200 µM meet or surpass 50% for "O[C@H]1CNCC[C@@H]1Nc1ncnc2[nH]ccc12" ?
result: 0.0

query: Does inhibition at 200 µM meet or surpass 50% for "O[C@@H]1CN(c2ncnc3[nH]ccc23)C[C@H]1F" ?
result: 0.0

---
query: Does inhibition at 200 µM meet or surpass 50% for NC(=O)C1(O)CCN(c2ncnc3[nH]ccc23)C1 (stereo not shown) ?
result: 0.0

query: Does inhibition at 200 µM meet or surpass 50% for C#CCC(CO)Nc1ncnc2[nH]ccc12 (stereo not shown) ?
result: 0.0

query: Does inhibition at 200 µM meet or surpass 50% for OCC(Cc1cncs1)Nc1ncnc2[nH]ccc12 (stereo not shown) ?
result: 0.0

query: Does inhibition at 200 µM meet or surpass 50% for "CO[C@@H]1C[C@H](CO)N(c2ncnc3[nH]ccc23)C1" ?
result: 0.0

query: Does inhibition at 200 µM meet or surpass 50% for CCC(Nc1ncnc2[nH]ccc12)C(C)O (stereo not shown) ?
result: 1.0

* * *

Target: SARS-CoV-2 NSP3 macrodomain (Mac1) (Severe acute respiratory syndrome coronavirus 2)
Assay type: binding
Settings: occupancy estimate from PanDDA
Assay Metric: 2*(1-BDC) (%)
Quick note: give the figure in %, leave out the unit.

These recorded examples may help you get a feel for the data.
# 2*(1-BDC) (%) measured on SARS-CoV-2 NSP3 macrodomain (Mac1) (Severe acute respiratory syndrome coronavirus 2) for item Cc1c[nH]c2ncnc(NCC3(O)CCCC3)c12 [AVI-3760] = 32

# 2*(1-BDC) (%) measured on SARS-CoV-2 NSP3 macrodomain (Mac1) (Severe acute respiratory syndrome coronavirus 2) for item Cc1c[nH]c2ncnc(NCC(C)(C)O)c12 [AVI-3758] = 28

# 2*(1-BDC) (%) measured on SARS-CoV-2 NSP3 macrodomain (Mac1) (Severe acute respiratory syndrome coronavirus 2) for item CC(C)(O)[C@@H]1CCCN1c1ncnc2[nH]ccc12 [AVI-1445] = 24

---
# 2*(1-BDC) (%) measured on SARS-CoV-2 NSP3 macrodomain (Mac1) (Severe acute respiratory syndrome coronavirus 2) for item Cc1c[nH]c2ncnc(NCC3(O)CCC3)c12 [AVI-3571] = 30

* * *

Target: SARS-CoV-2 NSP3 macrodomain (Mac1) (Severe acute respiratory syndrome coronavirus 2, UniProt P0DTD1)
Assay: biochemical
Assay type: binding
Conditions: SARS CoV-2 macrodomain HTRF assay, single dose concentration 200 μM
Assay Metric: Average % competition (%)
Quick note: give the figure in %, leave out the unit.

These recorded examples may help you get a feel for the data.
Kindly note the recorded Average % competition for "O[C@@H]1CN(c2ncnc3[nH]ccc23)C[C@H]1F" , which is 15

Kindly note the recorded Average % competition for NC(=O)C1(O)CCN(c2ncnc3[nH]ccc23)C1 (stereo not drawn) , which is 30

Kindly note the recorded Average % competition for CCC1(O)CCN(c2ncnc3[nH]ccc23)C1 (stereo not drawn) , which is 22

Kindly note the recorded Average % competition for "O[C@@]1(Cn2ccnn2)CCCN(c2ncnc3[nH]ccc23)C1" , which is 8

# ---- query compound ----
Kindly note the recorded Average % competition for OC1CCCN(c2ncnc3[nH]ccc23)C1 (stereo not drawn) , which is 20

* * *

Average % competition: recorded values
Molecular target: SARS-CoV-2 NSP3 macrodomain (Mac1) (Severe acute respiratory syndrome coronavirus 2, UniProt P0DTD1)
Experiment: biochemical
Type: binding
Quick note: give the figure in %, leave out the unit.

These recorded examples may help you get a feel for the data.
Kindly note the recorded Average % competition for Cc1nc2cc(NC(=O)C3CC(=O)Nc4ccccc43)ccc2o1 (stereo not shown) [AVI-292] , which is 0

Kindly note the recorded Average % competition for O=C(O)C1CCc2nnc(-c3ccc(F)cc3)n2C1 (stereo not shown) [AVI-326] , which is 15

---
Kindly note the recorded Average % competition for CC1CN(C(=O)c2ccccc2S(C)(=O)=O)c2cccnc2O1 (stereo not shown) [AVI-294] , which is 13

* * *

Target: SARS-CoV-2 NSP3 macrodomain (Mac1) (Severe acute respiratory syndrome coronavirus 2, UniProt P0DTD1)
Assay: biochemical
Assay type: binding
Conditions: Single dose, concentration 200 μM
// classify: if (Average % competition < 50%) Yes else No

Look over these answered cases.
query: # TODO verify Average % competition < 50% strictly for this compound: Cc1ccc(CC(CO)Nc2ncnc3[nH]ccc23)cc1C (stereo not drawn)
result: Yes

query: # TODO verify Average % competition < 50% strictly for this compound: OCC(Cc1cccs1)Nc1ncnc2[nH]ccc12 (stereo not drawn)
result: No

query: # TODO verify Average % competition < 50% strictly for this compound: OCC(CC(O)c1ccccc1)Nc1ncnc2[nH]ccc12 (stereo not drawn)
result: Yes

query: # TODO verify Average % competition < 50% strictly for this compound: OCC(CC1CCOC1)Nc1ncnc2[nH]ccc12 (stereo not drawn)
result: Yes

query: # TODO verify Average % competition < 50% strictly for this compound: OCC(CC1CCCO1)Nc1ncnc2[nH]ccc12 (stereo not drawn)
result: Yes

query: # TODO verify Average % competition < 50% strictly for this compound: CC(C)(C)CC(CO)Nc1ncnc2[nH]ccc12 (stereo not drawn)
result: Yes

query: # TODO verify Average % competition < 50% strictly for this compound: Cc1ccccc1CC(CO)Nc1ncnc2[nH]ccc12 (stereo not drawn)
result: Yes

query: # TODO verify Average % competition < 50% strictly for this compound: O=C(O)C(F)(F)F.O=[N+]([O-])c1ccc(C(O)C(CO)Nc2ncnc3[nH]ccc23)cc1 (stereo not drawn)
result: Yes

---
query: # TODO verify Average % competition < 50% strictly for this compound: "O=C(O)C(F)(F)F.O[C@H]1CCC[C@@H]1Nc1ncnc2[nH]ccc12"
result: No

query: # TODO verify Average % competition < 50% strictly for this compound: OCC(CN1CCCCC1)Nc1ncnc2[nH]ccc12 (stereo not drawn)
result: Yes

query: # TODO verify Average % competition < 50% strictly for this compound: O=C(O)C(F)(F)F.OCC(Nc1ncnc2[nH]ccc12)C1CCCO1 (stereo not drawn)
result: No

query: # TODO verify Average % competition < 50% strictly for this compound: CN(C)CC(CO)Nc1ncnc2[nH]ccc12 (stereo not drawn)
result: Yes

query: # TODO verify Average % competition < 50% strictly for this compound: OCC(Cc1cncs1)Nc1ncnc2[nH]ccc12 (stereo not drawn)
result: Yes

* * *

Ligand efficiency (binding enery per heavy atom): recorded values
Target: SARS-CoV-2 NSP3 macrodomain (Mac1) (Severe acute respiratory syndrome coronavirus 2)
Test: biochemical
Assay type: binding
Details: SARS CoV-2 macrodomain HTRF assay
// no unit string in output, number only

Kindly note the recorded Ligand efficiency (binding enery per heavy atom) for "OC1(CNc2ncnc3[nH]ccc23)CCOCC1" , which is 0.28

Kindly note the recorded Ligand efficiency (binding enery per heavy atom) for "C[C@H]1CC[C@H](CO)N(c2ncnc3[nH]ccc23)C1" , which is 0.33

---
Kindly note the recorded Ligand efficiency (binding enery per heavy atom) for OCCC(CO)Nc1ncnc2[nH]ccc12 (centres unmarked) , which is 0.37

Kindly note the recorded Ligand efficiency (binding enery per heavy atom) for "O=C(O)C(F)(F)F.OC[C@H](Cc1ccc(O)cc1)Nc1ncnc2[nH]ccc12" , which is 0.21

Kindly note the recorded Ligand efficiency (binding enery per heavy atom) for OCC(Nc1ncnc2[nH]ccc12)C1CC1 (centres unmarked) , which is 0.38

* * *

Biological target: SARS-CoV-2 NSP3 macrodomain (Mac1) (Severe acute respiratory syndrome coronavirus 2, UniProt P0DTD1)
Type: binding
Conditions: stereoisomer(s) modeled as bound, residues 201/202/203
Assay Metric: Isomers modeled

Kindly note the recorded Isomers modeled for OCC(Nc1ncnc2[nH]ccc12)C1CCc2ccccc21 (stereo not drawn) [AVI-3693] , which is RR,SR

Kindly note the recorded Isomers modeled for OCC1COCCN1c1ncnc2[nH]ccc12 (stereo not drawn) [AVI-3717] , which is R,S

Kindly note the recorded Isomers modeled for OCC(Cc1ccc(I)cc1)Nc1ncnc2[nH]ccc12 (stereo not drawn) [AVI-3686] , which is S,R
